# experimental system: BCL-XL (Homo sapiens, UniProt Q07817)
# Sequence (Q07817 whole entry, the tested form may be a part): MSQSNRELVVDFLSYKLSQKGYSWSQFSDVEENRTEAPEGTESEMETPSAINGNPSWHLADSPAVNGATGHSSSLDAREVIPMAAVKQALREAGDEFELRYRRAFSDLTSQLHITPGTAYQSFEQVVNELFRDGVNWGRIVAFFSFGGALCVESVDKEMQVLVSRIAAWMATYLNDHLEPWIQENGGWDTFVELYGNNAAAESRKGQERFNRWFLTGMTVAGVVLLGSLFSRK
# assay info: BH3 domain binding affinities to BCL-XL
pKd: −log10 of the molar value. Where no end group is shown, it is not given here.
measure name: pKd

Note to self: pKd recorded for NLWAAQRYGRELRRMSDEFVDSFK [BAD BH3] was > 8.00
